- protocol: Binding energy by using the equation deltaG obsd = -RT ln KD
- Format: ADME
measured_property: Binding energy (kcal/mol)
Numeric only. Scale: kcal/mol

# annotated cases, reported Binding energy shown
# molecule, uom, Binding energy
data = [
    ("Oc1ncnc2[nH]ncc12 [ALLOPURINOL]", "kcal/mol", 12.5),
    ("C=CCc1ccccc1OCC(O)CNC(C)C (stereo unspecified) [ALPRENOLOL]", "kcal/mol", 12.9),
    ("NCCc1c[nH]c2ccccc12 [TRYPTAMINE]", "kcal/mol", 7.9),
    ("O=C(c1ccc(F)cc1)C1CCN(CCn2c(=O)[nH]c3ccccc3c2=O)CC1 [KETANSERIN]", "kcal/mol", 12.8),
    ("CN1[C@@H]2C[C@@H](OC(=O)[C@H](CO)c3ccccc3)C[C@H]1[C@@H]1O[C@@H]12 [SCOPOLAMINE]", "kcal/mol", 12.9),
    ("Cl[C@H]1[C@H](Cl)[C@@H](Cl)[C@@H](Cl)[C@H](Cl)[C@H]1Cl [LINDANE]", "kcal/mol", 6.1),
    ("O=C(O)Cc1ccccc1Nc1c(Cl)cccc1Cl [DICLOFENAC]", "kcal/mol", 9.6),
    ("CC/C(=C(\\c1ccccc1)c1ccc(OCCN(C)C)cc1)c1ccccc1 [TAMOXIFEN]", "kcal/mol", 12.3),
    ("O=C(NO)C(O)P(=O)(O)O (stereo unspecified)", "kcal/mol", 10.9),
    ("C[C@]12CCC(=O)C[C@@H]1CC[C@@H]1[C@@H]2CC[C@]2(C)[C@@H](O)CC[C@@H]12 (stereo in doubt; 155) [STANOLONE]", "kcal/mol", 13.1),
]

Request the reported Binding energy associated with CCCCC[C@H](O)/C=C/[C@H]1[C@H](O)CC(=O)[C@@H]1CCCCCCC(=O)O [ALPROSTADIL]
11.2

Request the reported Binding energy associated with CN1CCN(C2=Nc3cc(Cl)ccc3Nc3ccccc32)CC1 [CLOZAPINE]
12.3

Request the reported Binding energy associated with CNC(=O)Oc1cccc2c1OC(C)(C)C2 [CARBOFURAN]
4.6

Request the reported Binding energy associated with "Cc1ncc(CO)c(CN[C@@H](C)C(=O)O)c1O"
9.2

Request the reported Binding energy associated with O=C(O)CCCC[C@@H]1SC[C@@H]2NC(=O)N[C@@H]21 [BIOTIN]
20.5

====

Attribute: Binding energy
- protocol: Binding energy by using the equation deltaG obsd = -RT ln KD
- Format: ADME
Numeric only. Scale: kcal/mol

# annotated cases, reported Binding energy shown
# compound, measured_property, meas_value
measured = [
    ("O=C1NC(=O)C(c2ccccc2)(c2ccccc2)N1", "Binding energy", 11.2),
    ("COc1cc(Cc2cnc(N)nc2N)cc(OC)c1OC", "Binding energy", 11.5),
    ("CCC1(CC)C(=O)NC(=O)N(C)C1=O", "Binding energy", 6.8),
    ("CN1Cc2c(N)cccc2C(c2ccccc2)C1 (stereo not given)", "Binding energy", 8.8),
]

Request the reported Binding energy associated with "O=c1[nH]c(=O)c2c[nH]nc2[nH]1"
12.6

Request the reported Binding energy associated with Nc1ncnc2c1ncn2[C@@H]1O[C@H](CO)C[C@H]1O [CORDYCEPIN]
8.2

Request the reported Binding energy associated with O=C(O)CC(CC(=O)CP(=O)(O)O)C(=O)O (stereo not given)
10.9

Request the reported Binding energy associated with "O=P(O)(O)O"
7.7

Request the reported Binding energy associated with CC(C)Cc1ccc(C(C)C(=O)O)cc1 (stereo not given)
8.3

Request the reported Binding energy associated with CC(=O)O[C@]1(C(C)=O)CC[C@H]2[C@@H]3C[C@H](C)C4=CC(=O)CC[C@]4(C)[C@H]3CC[C@@]21C [MEDROXYPROGESTERONE ACETATE]
10.2

These measurements were taken from ChEMBL document CHEMBL1122538.
